system: Adenosine receptor A2a (Bos taurus); assay: Inhibition of specific [3H]-CGS- 21680 binding at Adenosine A2A receptor in bovine striatal membranes at 20 uM.; settings: Striatum, Membrane
READOUT_LABEL: inhibition (%)

{"columns": ["SMILES_TEXT", "UNIT_ANNOTATION", "inhibition"],
 "data": [
  ["Oc1nc2ccccc2c2cn(-c3ccc(Cl)cc3)nc12", "%", 35]
]}

P = Cc1ccccc1-n1cc2c(n1)c(O)nc1ccccc12
Q = O=C(NCc1ccccc1)Nc1nc2ccccc2c2cn(-c3ccccc3)nc12
Select the item whose inhibition value is smaller, choosing between P and Q . Answer with the label corresponding to your selection. P

* * *

Protein target, amino acids: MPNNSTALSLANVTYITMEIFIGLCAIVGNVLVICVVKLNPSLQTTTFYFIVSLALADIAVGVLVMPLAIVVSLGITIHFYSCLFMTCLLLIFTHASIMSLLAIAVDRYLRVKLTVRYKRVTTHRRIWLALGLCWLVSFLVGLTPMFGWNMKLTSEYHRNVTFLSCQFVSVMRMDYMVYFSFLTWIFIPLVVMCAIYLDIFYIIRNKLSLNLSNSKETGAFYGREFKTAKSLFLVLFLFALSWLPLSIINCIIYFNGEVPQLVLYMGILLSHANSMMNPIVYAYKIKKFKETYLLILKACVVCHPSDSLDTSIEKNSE
READOUT_LABEL: Ki (nM)

{"columns": ["SMILES_TEXT", "UNIT_ANNOTATION", "Ki"],
 "data": [
  ["c1ccc(-n2cc3c(n2)c(NC2CCCCC2)nc2ccccc23)cc1", "nM", 707],
  ["Cc1cccc(-n2cc3c(n2)c(=O)[nH]c2ccccc23)c1", "nM", 5],
  ["Cn1c(=O)c2nn(-c3ccccc3)cc2c2ccccc21", "nM", 118]
]}

P = CC(=O)Nc1nc2ccccc2c2cn(-c3ccccc3)nc12
Q = O=C(Nc1ccccc1)Nc1nc2ccccc2c2cn(-c3ccccc3)nc12
Which entry has a larger number for Ki, P or Q ? Answer with the label corresponding to your selection. Q

* * *

target: Adenosine receptor A2a (Bos taurus); test: Displacement of specific [3H]-CGS- 21680 binding at Adenosine A2A receptor in bovine striatal membranes.
READOUT_LABEL: Ki (µM)

The examples below pair each entry with its known result.
{"columns": ["SMILES_TEXT", "READOUT_LABEL", "RESULT_NUMBER"],
 "data": [
  ["Clc1ccc2nc(NC3CCCCC3)c3nn(-c4ccccc4)cc3c2c1", "Ki", 4.14],
  ["Nc1nc2ccc(Cl)cc2c2cn(-c3ccccc3)nc12", "Ki", 5.75],
  ["Cc1cccc(-n2cc3c(n2)c(NC2CCCCC2)nc2ccccc23)c1", "Ki", 11.4],
  ["c1ccc(-n2cc3c(n2)c(NC2CCCC2)nc2ccccc23)cc1", "Ki", 0.849],
  ["Fc1cccc(-n2cc3c(n2)c(NC2CCCC2)nc2ccccc23)c1", "Ki", 2.21],
  ["c1ccc(CNc2nc3ccccc3c3cn(-c4ccccc4)nc23)cc1", "Ki", 5.4]
]}

A = Cc1ccccc1-n1cc2c(n1)c(N)nc1ccccc12
B = Cc1cccc(-n2cc3c(n2)c(N)nc2ccccc23)c1
Select the item whose Ki value is smaller, choosing between A and B . Answer with the label corresponding to your selection. A
